- Target Or System: nucleosome reconstituted with human core histones and Widom 601 DNA (human, UniProt P04908 2-130; P06899 1-126; P68431 1-136; P62805 2-103)
- Method Notes: MST
Kd by entry:
Report the figure in µM without appending any unit label.

His6-tagged RING domain heterodimer, GA mutant (GST-RING^A T948G^A-T952A^A with His6-Twin-Strep-Rad6A-RING^B) (complex, RED-Tris-NTA label on the His6 tag) chain 1: PDNVPKCDEILMEEIKDYKARLTCPCCNMRKKDAVLTKCFHVFCFECVKGRYDARQRKCPKCNAAFGANDFHRIYIG chain 2: MSTPARRRLMRDFKRLQEDPPAGVSGAPSENNIMVWNAVIFGPEGTPFEDGTFKLTIEFTEEYPNKPPTVRFVSKMFHPNVYADGSICLDILQNRWSPTYDVSSILTSIQSLLDEPNPNSPANSQAAQLYQENKREYEKRVSAIVEQSWRDCVEVYADADEILQEEIKEYKARLTCPCCNTRKKDAVLTKCFHVFCFECVRGRYEARQRKCPKCNAAFGAHDFHRIYIS : 0.0118
His6-tagged RING domain heterodimer, TT mutant (GST-RING^A with His6-Twin-Strep-Rad6A-RING^B G974T^B-A978T^B) (complex, RED-Tris-NTA label on the His6 tag) chain 1: PDNVPKCDEILMEEIKDYKARLTCPCCNMRKKDAVLTKCFHVFCFECVKTRYDTRQRKCPKCNAAFGANDFHRIYIG chain 2: MSTPARRRLMRDFKRLQEDPPAGVSGAPSENNIMVWNAVIFGPEGTPFEDGTFKLTIEFTEEYPNKPPTVRFVSKMFHPNVYADGSICLDILQNRWSPTYDVSSILTSIQSLLDEPNPNSPANSQAAQLYQENKREYEKRVSAIVEQSWRDCVEVYADADEILQEEIKEYKARLTCPCCNTRKKDAVLTKCFHVFCFECVRTRYETRQRKCPKCNAAFGAHDFHRIYIS : 0.0073

With those in mind, consider the next binder.
Exercise: Recorded Kd of His6-tagged RING domain heterodimer, GA + TT mutant (GST-RING^A T948G^A-T952A^A with His6-Twin-Strep-Rad6A-RING^B G974T^B-A978T^B) (complex, RED-Tris-NTA label on the His6 tag) chain 1: PDNVPKCDEILMEEIKDYKARLTCPCCNMRKKDAVLTKCFHVFCFECVKGRYDARQRKCPKCNAAFGANDFHRIYIG chain 2: MSTPARRRLMRDFKRLQEDPPAGVSGAPSENNIMVWNAVIFGPEGTPFEDGTFKLTIEFTEEYPNKPPTVRFVSKMFHPNVYADGSICLDILQNRWSPTYDVSSILTSIQSLLDEPNPNSPANSQAAQLYQENKREYEKRVSAIVEQSWRDCVEVYADADEILQEEIKEYKARLTCPCCNTRKKDAVLTKCFHVFCFECVRTRYETRQRKCPKCNAAFGAHDFHRIYIS , please.
Solution: 0.034

The values you see were collected from paper PMC10959955.
